Hey, just so you know, these numbers are from patent US20210277110A1.

Consider the following binders and their measured Kd readings.
Target: T1, Extracellular domain of cyno PD1 (cPD1-ECD) (Macaca fascicularis (cynomolgus))
T1 construct: Expressed with a hexahistidine tag or as Fc fusion; also called cynoPD1-ECD; cynoPD-1-ECD
T1 chain: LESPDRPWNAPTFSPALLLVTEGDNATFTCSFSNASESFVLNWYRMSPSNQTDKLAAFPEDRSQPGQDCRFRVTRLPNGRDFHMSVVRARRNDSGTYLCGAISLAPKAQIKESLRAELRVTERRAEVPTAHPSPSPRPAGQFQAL
Assay: SPR ProteOn, captured mAb, cynoPD1-ECD analyte;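 note: ProteOn XPR36 SPR with antibodies held by anti-IgG Fc on a GLC chip, on-rate, off-rate and KD derived from a Langmuir one-to-one fit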
measuredParameter: Kd (nM)

{"binder": "PD1B164 (antibody, human IgG2, kappa, V domains shown, IgG2sigma/kappa; VH 42, VL 53; also called PD1H131/PD1L71) VH: QVQLVQSGAEVKKPGSSVKVSCKASGGTFSSYAISWVRQAPGQGLEWMGGIIPIFDTANYAQKFQGRVTITADESTSTAYMELSSLRSEDTAVYYCARPGLAAAYDTGNLDYWGQGTLVTVSS VL: EIVLTQSPATLSLSPGERATLSCRASQSVRSYLAWYQQKPGQAPRLLIYDASYRATGIPARFSGSGSGTDFTLTISSLEPEDFAVYYCQQRDYWPLTFGQGTKVEIKR", "quantityUnit": "nM", "observed": 1.07}
{"binder": "PD1B160 (antibody, human IgG2, kappa, V domains shown, IgG2sigma/kappa; VH 42, VL 51; also called PD1H131/PD1L101) VH: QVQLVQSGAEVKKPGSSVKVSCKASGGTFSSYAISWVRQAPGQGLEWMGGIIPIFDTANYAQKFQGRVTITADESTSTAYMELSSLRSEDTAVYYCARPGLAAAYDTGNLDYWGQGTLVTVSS VL: EIVLTQSPATLSLSPGERATLSCRASQSVDSYLAWYQQKPGQAPRLLIKDASDRATGIPARFSGSGSGTDFTLTISSLEPEDFAVYYCQQRGNWPLTFGQGTKVEIKR", "quantityUnit": "nM", "observed": 5.23}
{"binder": "PD1B71 (antibody, V domains shown, Tested as IgG2sigma/kappa; also called PD1H108/PH9L3) VH: QVQLVQSGAEVKKPGSSVKVSCKASGGTFSSYAISWVRQAPGQGLEWMGGIIPIFGTANYAQKFQGRVTITADESTSTAYMELSSLRSEDTAVYYCARGTLDRTGHLDYWGQGTLVTVSS VL: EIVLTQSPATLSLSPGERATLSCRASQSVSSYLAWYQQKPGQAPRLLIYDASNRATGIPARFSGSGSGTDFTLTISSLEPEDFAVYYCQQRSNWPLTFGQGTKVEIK", "quantityUnit": "nM", "observed": 66.8}
{"binder": "PD1B70 (antibody, V domains shown, Tested as IgG2sigma/kappa; also called PD1H107/PH9L3) VH: QVQLVQSGAEVKKPGSSVKVSCKASGGTFSSYAISWVRQAPGQGLEWMGGIIPIFGTANYAQKFQGRVTITADESTSTAYMELSSLRSEDTAVYYCARGYVRATGMLDYWGQGTLVTVSS VL: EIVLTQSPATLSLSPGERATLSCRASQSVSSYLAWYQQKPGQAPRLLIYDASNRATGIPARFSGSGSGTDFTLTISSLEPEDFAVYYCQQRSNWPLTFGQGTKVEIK", "quantityUnit": "nM", "observed": 123}
{"binder": "PD1B177 (antibody, V domains shown, Tested as IgG2sigma; also called PD1H164/PH9L3) VH: QVQLVQSGAEVKKPGSSVKVSCKASGGTFSDYVISWVRQAPGQGLEWMGGIIPIYGTANYAQKFQGRVTITADESTSTAYMELSSLRSEDTAVYYCARGTLDRTGHLDYWGQGTLVTVSS VL: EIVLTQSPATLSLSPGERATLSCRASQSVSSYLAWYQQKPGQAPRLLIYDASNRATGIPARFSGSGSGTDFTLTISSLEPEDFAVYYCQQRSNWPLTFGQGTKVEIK", "quantityUnit": "nM", "observed": 6.47}
